The measured values listed here are drawn from paper PMC10218498.

Tested on: A-549 (pulmonary adenocarcinoma)
Method: MTT cell proliferation assay, A-549
Format: cell-based, human
Test Parameters: selectivity index
Method: The 3-(4,5-dimethylthiazol-2-yl)-2,5-diphenyltetrazolium bromide (MTT; Sigma Chemical Co.) dye reduction assay in 96-well microplates was used. […] After that, the supernatant was discarded and replaced by 100 µL of DMSO to dissolve formazan crystals. The absorbance was then read at 550 nm by spectrophotometry. For all concentrations of compound, cell viability was expressed as the percentage of the ratio between the mean absorbance of treated cells and the mean absorbance of untreated cells. […]
Give measured SI (A-549) (IC50HEK293/A-549) for each item. Keep answers brief.

// solved cases for SI (A-549) (IC50HEK293/A-549) follow
COc1ccc(COc2cccc(NC(=O)Nc3ccc(OC)cc3)c2)cc1 = >9
COc1ccc(COc2cccc(NC(=O)Oc3ccccc3)c2)cc1 = >27
COc1ccc(COc2cccc(NC(=O)Nc3ccc(Cl)cc3)c2)cc1 = >7

Give one value of SI (A-549) (IC50HEK293/A-549) per listed compound.
1. Cc1c(COc2ccc(CN3CCCCC3C(=O)O)cc2Br)cccc1-c1ccccc1 (stereo not drawn) [BMS-8, reference compound]
2. COc1ccc(COc2cccc(NC(=O)Nc3ccc(F)cc3)c2)cc1

1: 10; 2: >29

Assign SI (A-549) (IC50HEK293/A-549) to the following record: "COc1ccc(COc2cccc(NC(=O)Nc3ccc(Br)cc3)c2)cc1"
>62
